tested on: CYP450; test: Inhibition of rat spleen microsomal CYP450 assessed as reduction of NADPH dependent cytochrome c at 500 uM; type: ADME; details: spleen microsomes, probe cytochrome c
reported_property: inhibition at 500 µM
Could you kindly put the unit after your number?

// field: inhibition at 500 µM; key: Cc1cn(CC(=O)c2ccc([N+](=O)[O-])cc2)cn1 ; value = 13%

###

Quick reference: pIC50 of the listed items.
system: Radical scavenging activity; assay: Antioxidant activity assessed as DPPH free radical scavenging activity after 10 mins; format: functional
// pIC50 is dimensionless: -log10 of concentration (M)

INSERT INTO measurements (query_smiles, assay_result) VALUES
  ('Cc1nccn1CC(=O)c1ccc([N+](=O)[O-])cc1', 3.78);

// field: pIC50; key: O=C(Cn1ccnc1)c1ccc([N+](=O)[O-])cc1 ; value = 3.38

// field: pIC50; key: CCCc1nccn1CC(=O)c1ccc([N+](=O)[O-])cc1 ; value = 3.58

// field: pIC50; key: CC(C)c1nccn1CC(=O)c1ccc([N+](=O)[O-])cc1 ; value = 3.64

Where these numbers come from: ChEMBL document CHEMBL1944541
